# Tested on: Benjaminiella poitrasii
# assay protocol: Inhibition of yeast hypha transition at 20 ug/mL after 4 hrs
Measured inhibition at 20 µg/mL of individual entries
readout name: inhibition at 20 µg/mL (%)

>>> value_observed("CC(=O)N(C(C)=O)c1nc2c(c(-c3ccc(C)cc3)c1C#N)C(=O)CCC2")
90
>>> value_observed("N#Cc1c(N)nc2c(c1-c1ccc([N+](=O)[O-])cc1)C(=O)CCC2")
95
>>> value_observed("N#Cc1c(N)nc2c(c1-c1cccc(N)c1)C(=O)CCC2")
95
>>> value_observed("N#Cc1c(N)nc2c(c1-c1cccc(NC(=O)CCN3CCOCC3)c1)C(=O)CCC2")
95

Reference source for all entries: ChEMBL document CHEMBL1137451
